biological target: IFN-αC (human, UniProt P01566 24-189); assay: cell-based or functional assay
measured_parameter: IC50, ISRE assay (nM)

INSERT INTO assay_data (binder, value_units, value_measured) VALUES
  ('IFWM3410 (antibody, IgG1, V domains shown, mAb; IgG1/kappa said of the parent and of selected mAbs; also called IFWB3145) VH: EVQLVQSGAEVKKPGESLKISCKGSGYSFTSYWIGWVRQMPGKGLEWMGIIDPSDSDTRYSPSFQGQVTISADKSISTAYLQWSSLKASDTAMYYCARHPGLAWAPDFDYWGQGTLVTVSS VL: DIQMTQSPSSLSASVGDRVTITCRASQSIANTNLNWYQQKPGKAPKLLIHWASSLQSGVPSRFSGSGSGTDFTLTISSLQPEDFATYYCQQWYDNPLTFGQGTKVEIK', 'nM', 0.168);
